Give measured z-score for each item. Keep answers brief.
TEST DETAILS: ATP-based viability of Huh7 replicon cells – cell-based, CellTiter-Glo luminescence, basal, 48 h, cytotoxicity control for HCV replication inhibitor project, primary screen (AID 1143);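 also: Huh7 hepatoma cells carrying a hepatitis C replication reporter with no stimulus; test concentration not given here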
EXPERIMENTAL PARAMETERS: higher = more signal, called active from +8 up or from −8 down
Numbers only.

| COMPOUND | z-score |
| --- | --- |
| CC(C)N1C(=O)c2ccccc2[C@@H](C(=O)NCC(F)(F)F)[C@@H]1c1ccc(CO)cc1 | 0.837 |
| CCCC[C@H]1C[C@@H]1[C@@H]1N(C(C)=O)[C@H](c2cccc(OC)c2)CC12CC2 | -0.338 |
| COCCCN1C(=O)[C@@]2(c3ccc([N+](=O)[O-])cc3)CC(=O)N(CC34CC5CC(CC(C5)C3)C4)[C@@H]2c2ccc(CO)cc21 | -0.636 |

The recorded z-score for entry C#CCN1[C@@H](Cc2ccccc2)C(=O)O[C@H](Cc2ccccc2)[C@@H]1/C=C/C1CC1 equals -3.05

* * *

TEST DETAILS: growth effects on S. cerevisiae YJM789 – YJM789 clinical isolate, OD600, 24 h, basal, primary screen (AID 1089);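 also: growth of clinical yeast isolate S. cerevisiae YJM 789 seeded 1000 cells per well; test concentration not given here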
EXPERIMENTAL PARAMETERS: higher = more signal, called active from +8 up or from −8 down
VALUE KIND: z-score
One number for each entry.

Field: example entries. Status: answers known.
| MOLECULE | VALUE KIND | NUMBER |
| --- | --- | --- |
| [N-]=[N+]=NCc1ccccc1[C@@H]1OC(c2ccc(OCCCO)cc2)=N[C@]1(Cc1ccccc1N=[N+]=[N-])C(=O)O | z-score | -0.282 |
| NC(=O)N1C(=O)C2C(C1=O)C1C=C(CCCO)C2C(c2ccc(CN3CCCC3)cc2)N1Cc1cc2c(cc1Br)OCO2 (stereo unspecified) | z-score | -2.23 |
| NC(=O)N1C(=O)C2C(C1=O)C1C=C(CCCO)C2C(C2CC2)N1Cc1sc2ccccc2c1Cl (stereo unspecified) | z-score | -0.425 |
| C=CCN1C(=O)[C@@]2(O[C@@H](CCn3cc([C@H](O)c4ccccc4)nn3)[C@H]([Si](C)(C)c3ccc(OC)cc3)[C@H]2C)c2cc(N3C(=O)c4cccc5cccc3c45)ccc21 | z-score | 0.584 |
| COC(=O)C(CC#Cc1ccc2c(c1)[C@]1(C(=O)N2)[C@H](c2ccc(OCCO)cc2)N2[C@H](c3ccccc3)[C@H](c3ccccc3)OC(=O)[C@H]2[C@@H]1C(=O)N1CCCCCCC1)C(=O)OC | z-score | 1.37 |

We now examine a further molecule.
The recorded z-score for entry O=C1O[C@H](c2ccccc2)[C@H](c2ccccc2)N2[C@H]1[C@@H](C(=O)N1CCN(c3ncccn3)CC1)[C@]1(C(=O)Nc3ccc(C#CCCO)cc31)[C@H]2c1ccc(O)cc1 equals 0.515

* * *

TEST DETAILS: compound effects on hepatocellular carcinoma cell viability – HepG2, calcein-AM fluorescence, 48 h, basal, profiling panel (AID 1164); also: test concentration not given here
EXPERIMENTAL PARAMETERS: higher = more signal
Give measured z-score for each item. Keep answers brief.
Answers are plain numbers.

Field: example entries. Status: answers known.
| COMPOUND | VALUE KIND | NUMBER |
| --- | --- | --- |
| O=C(NCCN1CCOCC1)[C@@H]1c2ccccc2C(=O)N(Cc2ccccc2C(F)(F)F)[C@H]1c1ccc(CO)cc1 | z-score | 0.893 |
| COCCOC(=O)N1C(=O)[C@@]2(c3cc(C#CC4(O)CCCCCC4)ccc31)[C@H](c1ccc(O)cc1)N1[C@H](c3ccccc3)[C@H](c3ccccc3)OC(=O)[C@H]1[C@@H]2C(=O)N1CCCCCCC1 | z-score | 0.98 |
| CCCCC(O)C1C=CC2C(=O)N(c3ccccc3)C(=O)C2N1Nc1ccc([N+](=O)[O-])cc1 (stereo unspecified) | z-score | 0.0784 |
| C=CCC(OC(C)=O)[C@@H]1[C@@H](N(Cc2cccc3ccccc23)C(=O)Cc2ccc(OC)cc2)c2cc(OCCCO)ccc2N1C(=O)c1ccc2ccccc2c1 (stereo partly specified) | z-score | 0.692 |
| CC(=O)OCC1C2CC[C@H]3C(OCc4ccc(F)cc4C(F)(F)F)OC[C@]4(C)[C@H]3C2=C(CN4C(=O)OC(C)(C)C)[C@H](C)C1COC(C)=O (stereo partly specified) | z-score | -0.174 |

We now examine a further compound.
The recorded z-score for entry C=CCOC(=O)[C@@H]1[C@H]2C(=O)O[C@H](c3ccccc3)[C@H](c3ccccc3)N2[C@H](c2ccc(OCCOC(=O)[C@H]3C[C@H]4C(=O)NCC(=O)N4[C@H]3c3cccc(OCCO)c3)cc2)[C@@]12C(=O)Nc1ccc(I)cc12 equals 0.946

* * *

TEST SYSTEM: NADPH oxidase 5 (Homo sapiens)
TEST DETAILS: compounds shifting NOX5 Amplex Red fluorescence – cell-based, HEK293-NOX5, NOX inhibitor project, primary screen (AID 1161)
EXPERIMENTAL PARAMETERS: HEK293-NOX5, ionomycin, 45 min, higher = more signal
VALUE KIND: z-score
Numbers only.

Field: example entries. Status: answers known.
| COMPOUND | VALUE KIND | NUMBER |
| --- | --- | --- |
| COc1ccc(C(O)C2C=CC3C(=O)N(c4ccccc4)C(=O)C3N2Nc2ccc([N+](=O)[O-])cc2)c2ccccc12 (centres undefined) | z-score | -1.55 |
| O=C1C[C@@](C(=O)NC2CC2)(c2ccc([N+](=O)[O-])cc2)[C@@H](c2ccc(CO)cc2)N1C1CCCCC1 | z-score | -5.08 |
| O=C1NC(=O)C2C1C=CC(C(O)c1ccc(B(O)O)cc1)N2Nc1ccc(Cl)cc1Cl (centres undefined) | z-score | -6.42 |

We now examine a further compound.
The recorded z-score for entry NC(=O)NCC#Cc1ccc2c(c1)[C@]1(C(=O)N2)[C@H](c2ccc(OCCO)cc2)N2[C@H](c3ccccc3)[C@H](c3ccccc3)OC(=O)[C@H]2[C@@H]1C(=O)NC[C@H](O)c1ccccc1 equals 0.742

* * *

TEST DETAILS: binders of probe aHhip on microarray, primary screen, stem cell growth factor project, biochemical, small-molecule microarray, fluorescence 635/667 (AID 1087);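 also: score merges spot fluorescence at 667nm with spot signal to noise ratio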
EXPERIMENTAL PARAMETERS: higher = more signal
VALUE KIND: composite z-score
Numbers only.

Field: example entries. Status: answers known.
| COMPOUND | composite z-score |
| --- | --- |
| CN(C)CCCNC(=O)[C@@H]1c2ccccc2C(=O)N(Cc2ccccc2C(F)(F)F)[C@H]1c1ccc(CO)cc1 | -0.149 |
| C=CCOC(=O)[C@@H]1[C@H]2C(=O)O[C@H](c3ccccc3)[C@H](c3ccccc3)N2[C@H](c2ccc(OCCOC(=O)[C@H]3C[C@H]4C(=O)NCC(=O)N4[C@H]3c3cccc(OCCO)c3)cc2)[C@@]12C(=O)Nc1ccc(I)cc12 | -0.0296 |
| COC(=O)C(CC#Cc1ccc2c(c1)[C@]1(C(=O)N2)[C@H](c2ccccc2OCCO)N2[C@H](c3ccccc3)[C@H](c3ccccc3)OC(=O)[C@H]2[C@@H]1C(=O)N1CCc2cc(OC)c(OC)cc2C1)C(=O)OC | -0.374 |
| COC(=O)C(CC#Cc1ccc2c(c1)[C@]1(C(=O)N2)[C@H](C(=O)NC[C@H](O)c2ccccc2)[C@H]2C(=O)O[C@H](c3ccccc3)[C@H](c3ccccc3)N2[C@@H]1c1ccccc1OCCO)C(=O)OC | 0.0749 |
| O=C(NCC(O)CO)C1N=C(c2ccc(OCCCO)cc2)N(c2ccccc2)O1 (stereo not drawn) | 0.136 |
| C=CCOC(=O)[C@@H]1[C@H]2C(=O)O[C@H](c3ccccc3)[C@H](c3ccccc3)N2[C@H](c2ccc(OCCOC(=O)[C@H]3C[C@H]4C(=O)N5CCC[C@H]5C(=O)N4[C@H]3c3cccc(OCCO)c3)cc2)[C@@]12C(=O)Nc1ccc(I)cc12 | -0.0767 |
| CC(C)NC(=O)[C@@]1(c2ccc([N+](=O)[O-])cc2)CC(=O)N(CC23CC4CC(CC(C4)C2)C3)[C@@H]1c1ccc(CO)cc1 | 1.11 |
| COc1ccccc1CN1C(=O)c2ccccc2[C@](Cc2ccccc2I)(C(=O)NCC(C)C)[C@@H]1c1ccc(CO)cc1 | 0.142 |

I need composite z-score for every entry listed below, if you could help.
1. CCCCCC1=C2CNC(CC(C)C)(C(=O)OC)C=C2C(C)C1=O (stereo not drawn)
2. Cc1ccc(C(C)CC(O)C2C=CC3C(=O)N(C)C(=O)C3N2Nc2ccccc2)o1 (stereo not drawn)
3. CC1CC/C=C\[C@H]2OC34C=CCN(Cc5ccccc5)C(=O)[C@H]3N(CCCCCCO)C(=O)[C@@H]4C2C(=O)O1 (stereo partly drawn)
4. C=C(C)[C@@H]1CC=C(C(O)C2C=CC3C(=O)N(c4ccccc4)C(=O)C3N2Nc2ccc([N+](=O)[O-])cc2)CC1 (stereo partly drawn)
5. Cc1ccc(S[C@]2(C(=O)NCCCN(C)C)CC(=O)N(C3Cc4ccccc4C3)[C@@H]2c2ccc(CO)cc2I)cc1

Response line:
1. 3.31
2. -0.0994
3. -0.226
4. 0.167
5. -0.0373
